- Test system: Canis familiaris
- assay-procedure: Percent change in renal blood flow by 6.2 mg/kg of compound administered intravenously in dog
- Type: functional, Canis lupus familiaris
- assay-context: route intravenous
measurement-name: Change (%)
Give your result in % as a bare value.

Query block: GET /values?readout=Change&item= COc1cc2c(C)nc(O)c(NC(C)=O)c2cc1OC
Result block: 39

Query block: GET /values?readout=Change&item= COc1ccc(NC(=O)Nc2c(O)nc(C)c3c(OC)c(OC)c(OC)cc23)cc1
Result block: 14

Query block: GET /values?readout=Change&item= COc1cc2c(C)nc(O)c(NC(=O)C(C)C)c2cc1OC
Result block: -5

Query block: GET /values?readout=Change&item= COc1cc2c(C)nc(O)c(NC(=O)NC(C)(C)C)c2cc1OC
Result block: 10

Query block: GET /values?readout=Change&item= COc1cc2c(C)nc(O)c(NC(=O)Nc3cccc(C(F)(F)F)c3)c2cc1OC
Result block: 23

Query block: GET /values?readout=Change&item= COc1ccc(NC(=O)Nc2c(O)nc(C)c3cc(OC)c(OC)cc23)cc1
Result block: 68

Query block: GET /values?readout=Change&item= CCCCOC(=O)Nc1c(O)nc(C)c2cc(OC)c(OC)cc12
Result block: -23

Query block: GET /values?readout=Change&item= CCCCNC(=O)Nc1c(O)nc(C)c2cc(OC)c(OC)cc12
Result block: 117

Query block: GET /values?readout=Change&item= CCOc1cc2c(C)nc(O)c(NC(=O)Nc3ccc(OC)cc3)c2cc1OC
Result block: -8

Query block: GET /values?readout=Change&item= COc1cc2c(C)nc(O)c(NC(=O)Nc3ccc(C(F)(F)F)cc3)c2cc1OC
Result block: 49

Query block: GET /values?readout=Change&item= C=CCOC(=O)Nc1c(O)nc(C)c2cc(OC)c(OC)cc12
Result block: 2
